# pKd annotations
- System name: T1, human Trop-2-His protein (human, UniProt P09758 27-274)
- T1 construct: extracellular domain; Assay paragraphs say only 'Trop-2-His'; also called hTrop-2; Kactus Cat #TRP-HM121; not shown: His tag
- T1 sequence (looked up): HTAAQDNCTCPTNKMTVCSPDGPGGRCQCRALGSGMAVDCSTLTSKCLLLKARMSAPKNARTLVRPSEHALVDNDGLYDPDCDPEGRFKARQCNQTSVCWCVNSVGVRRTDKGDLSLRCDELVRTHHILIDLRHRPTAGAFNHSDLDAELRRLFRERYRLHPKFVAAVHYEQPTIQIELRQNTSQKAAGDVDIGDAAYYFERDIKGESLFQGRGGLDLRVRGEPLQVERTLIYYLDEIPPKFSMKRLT
- Test protocol: BLI (Gator Plus), purified Ab on HFC probe
In plain terms, pKd is the concentration in mol/L turned into minus its base-10 logarithm.

Sample records with pKd:
[
  {
    "Binder": "63H3 (antibody, V domains shown, Rabbit-derived clone; LEM construct: VH + rabbit IgG CH1 + human IgG1 CH2-CH3) VH: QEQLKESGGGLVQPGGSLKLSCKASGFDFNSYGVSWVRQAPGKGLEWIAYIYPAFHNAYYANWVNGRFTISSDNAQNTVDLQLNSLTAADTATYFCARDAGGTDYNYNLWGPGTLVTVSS VL: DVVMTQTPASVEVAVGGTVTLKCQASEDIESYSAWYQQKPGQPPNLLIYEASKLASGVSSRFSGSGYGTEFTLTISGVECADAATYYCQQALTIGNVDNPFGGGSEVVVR",
    "pKd": 10.52
  },
  {
    "Binder": "9F7 (antibody, V domains shown, Rabbit-derived clone; LEM construct: VH + rabbit IgG CH1 + human IgG1 CH2-CH3) VH: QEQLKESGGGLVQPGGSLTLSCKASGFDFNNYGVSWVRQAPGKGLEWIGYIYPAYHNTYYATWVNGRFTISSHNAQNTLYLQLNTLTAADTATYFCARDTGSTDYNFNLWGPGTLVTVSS VL: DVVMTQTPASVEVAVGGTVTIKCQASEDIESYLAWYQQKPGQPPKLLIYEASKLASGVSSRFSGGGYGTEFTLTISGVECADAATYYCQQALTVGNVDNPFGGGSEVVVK",
    "pKd": 10.40
  },
  {
    "Binder": "5D4-2 (antibody, V domains shown) VH: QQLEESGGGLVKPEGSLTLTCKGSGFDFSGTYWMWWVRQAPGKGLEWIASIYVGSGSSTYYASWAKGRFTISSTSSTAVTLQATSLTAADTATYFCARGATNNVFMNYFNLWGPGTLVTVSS VL: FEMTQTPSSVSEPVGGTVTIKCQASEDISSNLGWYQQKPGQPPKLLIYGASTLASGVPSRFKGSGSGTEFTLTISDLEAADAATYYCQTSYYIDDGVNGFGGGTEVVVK",
    "pKd": 9.92
  }
]

Okay, next one:
Enquiry: Name the reported pKd value associated with the binder 74F11/15F5 (antibody, human IgG1, V domains shown, LEM construct: VH + rabbit IgG CH1 + human IgG1 CH2-CH3) VH: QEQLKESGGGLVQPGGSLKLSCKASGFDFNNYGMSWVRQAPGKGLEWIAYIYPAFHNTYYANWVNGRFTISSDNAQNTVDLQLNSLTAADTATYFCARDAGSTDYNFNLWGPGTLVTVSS VL: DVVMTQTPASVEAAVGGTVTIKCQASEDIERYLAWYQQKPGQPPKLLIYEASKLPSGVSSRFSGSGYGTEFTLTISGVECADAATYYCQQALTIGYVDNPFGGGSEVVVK
Return: 11.00
